Study System: Fructose-bisphosphate aldolase (Mycobacterium tuberculosis (strain ATCC 25618 / H37Rv))
Protocol Text: Mtb FBA enzyme inhibitors, primary screen, biochemical, fluorescence, strain H37Rv (AID 588726);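 also: 0% = vehicle and 100% = reference inhibitor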
Particulars: purified M. tuberculosis FBA, fluorescence read-out, at 1 µM, stronger effect = higher value
Screen size: about 360,000 compounds; about 8,200 (2.3%) were called active. This excerpt belongs to a sample that is enriched for actives.
Would you kindly list inhibition for each of these molecules?
Answers are plain numbers, in %.

CCC(=O)Nc1ccccc1C(=O)N1CCN(Cc2ccccc2)CC1 :: 1.09
CC(C)(C)OC(=O)C[C@@H]1C/C=C\C[C@H](CC(=O)N[C@@H](CO)Cc2ccccc2)C(=O)N[C@H](Cc2ccccc2)COC1=O :: 3.41
CCCn1nc(NS(=O)(=O)c2ccc(F)cc2)c2cc3ccccc3nc21 :: 1.96
Cc1ccc(S(=O)(=O)NCc2nc3ccccc3c(=O)n2N)cc1 :: 0.87
Cc1ccc(S(=O)(=O)Nc2nc(N)n(-c3ccccc3)n2)cc1 :: -1.75
N#CCSc1nn(-c2ccc(F)cc2)c(=S)s1 :: 2.99

Below are some molecules; for each one, tell me its inhibition.
1. O=C1NCC(Nc2ccccc2)C(=O)N1 (stereo unspecified)
2. CCCCCCCCCCCCN1[C@@H](CC(C)=O)c2cc(F)cc(F)c2S1(=O)=O

1: -2.44; 2: -2.16

Below is a list of molecules. For each, state its recorded inhibition.
1. CCCCCCN1C[C@H](O)[C@@H](n2cc(C3CC3)nn2)C[C@@H]1c1ccc(Cl)cc1
2. CCCCC(=O)NNC(=S)NC(=O)C(c1ccccc1)c1ccccc1
3. CC(C)Cc1nnc(N)s1

0.57
6.76
0.9

----------
Study System: Fructose-bisphosphate aldolase (Mycobacterium tuberculosis (strain ATCC 25618 / H37Rv)) (UniProt P9WQA3)
Sequence (P9WQA3 whole entry, looked up): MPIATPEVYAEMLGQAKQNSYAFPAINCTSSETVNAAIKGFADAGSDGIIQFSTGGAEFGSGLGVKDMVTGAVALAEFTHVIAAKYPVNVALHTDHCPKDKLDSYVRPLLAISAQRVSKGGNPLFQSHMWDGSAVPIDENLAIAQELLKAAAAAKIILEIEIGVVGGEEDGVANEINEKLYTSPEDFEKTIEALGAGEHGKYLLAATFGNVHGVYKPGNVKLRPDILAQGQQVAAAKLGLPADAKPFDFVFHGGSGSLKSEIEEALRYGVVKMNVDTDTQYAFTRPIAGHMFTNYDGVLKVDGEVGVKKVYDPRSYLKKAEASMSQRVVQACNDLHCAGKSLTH
Protocol Text: Mtb FBA enzyme inhibitors, primary screen, biochemical, fluorescence, strain H37Rv (AID 588726);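 also: 0% = vehicle and 100% = reference inhibitor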
Particulars: purified M. tuberculosis FBA, fluorescence read-out, at 1 µM, stronger effect = higher value
Hit rate of the full screen: of about 360,000 compounds, about 8,200 (2.3%) were called active. For the sample, actives were picked, then their nearest neighbours and some compounds at random.
For each of the compounds below, state its inhibition.

COc1cccc2cc(C(=O)N3CCN(C(=O)c4ccccc4)CC3)c(=O)oc12 :: -2.27% (inactive)
O=C(N/N=C\c1ccc(-c2ccc(Cl)c(Cl)c2)o1)C(=O)N1CCCC1 :: 1.03% (inactive)
CN=C1C=C/C(=N/N=c2\ccn(O)cc2C)C=C1C :: -28.4% (inactive)
Cc1cccc(NC(=O)c2sc3nc(N4CCOCC4)c4c(c3c2N)CCCC4)c1 :: 39.1% (active)
Cc1ccc2nc(-c3ccc(NC(=O)c4cccnc4)cc3)oc2c1 :: -7.14% (inactive)

Okay, here is my list. What is inhibition for each of these?
1. O=c1c2cc([N+](=O)[O-])ccc2nc2n1CCC2
2. CC(C)(C)C(=O)CSc1nc2ccccc2o1

["3.1% (inactive)", "2.23% (inactive)"]

Record inhibition for all entries; do not skip any.
1. O=C(Nc1ncc2c(n1)-c1ccccc1OC2)c1ccc(Cl)cc1
2. COc1cccc(C(=O)Nc2ccc3nc4n(c(=O)c3c2)CCCCC4)c1
3. COc1cc(OC)cc(C(=O)Nc2ccc(-c3nc4ccccc4o3)c(O)c2)c1
4. O=c1ccc(-c2ccc(S(=O)(=O)Nc3ccccc3)o2)n[nH]1

1: 97.1% (active); 2: 0.68% (inactive); 3: 38% (active); 4: 2.01% (inactive)
